Every entry's value here was drawn from patent US20230183354A1.

biological target: T1, human CD103 (integrin Alpha-E) / human integrin Beta-7 heterodimer on cells (human, UniProt P38570 19-1179; P26010 20-798); assay: flow cytometry competition on CD103+CD8+ T cells; pre-incubation with unlabeled 05A; table n=2
T1 construct: the assay field tells which cells; also called hCD103/hBeta7; CHO.K1-hCD103/hBeta7
T1 sequence (P38570 19-1179 limits assumed, chain 1 of 2): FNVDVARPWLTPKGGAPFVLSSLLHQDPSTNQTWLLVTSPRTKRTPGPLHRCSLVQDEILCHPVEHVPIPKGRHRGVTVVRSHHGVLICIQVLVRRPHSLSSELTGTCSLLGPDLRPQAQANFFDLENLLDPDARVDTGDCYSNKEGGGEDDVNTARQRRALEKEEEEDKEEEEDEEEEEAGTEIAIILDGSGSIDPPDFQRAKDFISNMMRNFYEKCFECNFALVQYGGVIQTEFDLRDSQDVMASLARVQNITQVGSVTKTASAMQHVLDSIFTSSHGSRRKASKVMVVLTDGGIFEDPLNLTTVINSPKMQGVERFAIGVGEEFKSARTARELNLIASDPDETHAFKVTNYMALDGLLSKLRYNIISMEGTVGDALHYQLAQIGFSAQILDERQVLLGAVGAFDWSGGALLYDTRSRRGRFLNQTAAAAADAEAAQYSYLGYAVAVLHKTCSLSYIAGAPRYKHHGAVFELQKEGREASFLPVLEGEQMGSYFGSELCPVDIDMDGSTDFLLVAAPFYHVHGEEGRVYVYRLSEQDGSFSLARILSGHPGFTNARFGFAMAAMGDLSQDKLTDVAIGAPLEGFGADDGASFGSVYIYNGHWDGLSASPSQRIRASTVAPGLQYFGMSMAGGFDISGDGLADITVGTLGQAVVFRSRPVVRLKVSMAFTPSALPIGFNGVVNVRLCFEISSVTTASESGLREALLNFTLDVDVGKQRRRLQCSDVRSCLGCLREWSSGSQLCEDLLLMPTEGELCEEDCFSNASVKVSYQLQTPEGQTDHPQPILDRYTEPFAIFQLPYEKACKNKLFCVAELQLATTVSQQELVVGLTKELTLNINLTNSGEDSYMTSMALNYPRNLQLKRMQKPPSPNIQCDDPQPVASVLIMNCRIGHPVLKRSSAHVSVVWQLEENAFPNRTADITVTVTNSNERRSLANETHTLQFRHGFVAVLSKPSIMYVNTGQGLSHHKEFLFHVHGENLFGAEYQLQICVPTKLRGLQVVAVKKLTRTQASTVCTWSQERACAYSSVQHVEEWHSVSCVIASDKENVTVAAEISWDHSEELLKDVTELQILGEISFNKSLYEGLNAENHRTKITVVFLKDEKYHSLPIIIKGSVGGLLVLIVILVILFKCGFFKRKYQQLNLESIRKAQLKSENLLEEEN
T1 sequence (P26010 20-798 limits assumed, chain 2 of 2): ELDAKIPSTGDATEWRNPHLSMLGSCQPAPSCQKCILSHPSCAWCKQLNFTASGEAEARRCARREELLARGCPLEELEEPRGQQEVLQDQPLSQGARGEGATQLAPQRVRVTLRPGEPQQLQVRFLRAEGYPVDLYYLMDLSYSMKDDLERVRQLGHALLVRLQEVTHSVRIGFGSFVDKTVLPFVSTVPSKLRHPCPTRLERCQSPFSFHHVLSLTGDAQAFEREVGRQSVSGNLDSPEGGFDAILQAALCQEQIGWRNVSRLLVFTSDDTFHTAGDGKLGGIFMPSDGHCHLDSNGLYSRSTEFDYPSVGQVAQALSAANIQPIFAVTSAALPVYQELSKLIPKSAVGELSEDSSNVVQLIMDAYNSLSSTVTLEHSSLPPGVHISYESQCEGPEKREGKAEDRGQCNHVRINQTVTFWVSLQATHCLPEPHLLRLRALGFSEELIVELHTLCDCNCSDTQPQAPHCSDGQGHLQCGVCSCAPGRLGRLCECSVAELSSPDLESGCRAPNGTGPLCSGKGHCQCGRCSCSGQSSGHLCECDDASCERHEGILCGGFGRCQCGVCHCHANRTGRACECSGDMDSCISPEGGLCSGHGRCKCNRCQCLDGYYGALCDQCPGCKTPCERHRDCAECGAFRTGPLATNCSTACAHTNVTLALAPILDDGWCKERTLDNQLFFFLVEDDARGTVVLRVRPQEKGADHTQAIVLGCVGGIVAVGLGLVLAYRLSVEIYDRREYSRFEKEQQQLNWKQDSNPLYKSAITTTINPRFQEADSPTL
Measured Quantity: % binding of the fluorescently labeled mAb (IgG pre-incubation = 100) (%)
# unit: % | format: bare number

Binder	Readout Units	Result Value
hCD103.01A (antibody, V domains shown, Also tested labelled with AF647, conjugated with Df and labelled with 89Zr; these are written under this molecule; also called clone 01A; hCD103.01 mAb) VH: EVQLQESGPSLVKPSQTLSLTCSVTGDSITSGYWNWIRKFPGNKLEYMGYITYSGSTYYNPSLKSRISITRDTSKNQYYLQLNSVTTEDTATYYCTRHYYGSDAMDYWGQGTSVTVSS VL: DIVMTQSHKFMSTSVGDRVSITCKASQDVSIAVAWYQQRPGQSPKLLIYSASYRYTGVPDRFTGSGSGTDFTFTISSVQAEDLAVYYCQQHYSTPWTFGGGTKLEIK	%	77.4
hCD103.06A (antibody, mouse IgG1, V domains shown, also called clone 06A; hCD103.06 mAb) VH: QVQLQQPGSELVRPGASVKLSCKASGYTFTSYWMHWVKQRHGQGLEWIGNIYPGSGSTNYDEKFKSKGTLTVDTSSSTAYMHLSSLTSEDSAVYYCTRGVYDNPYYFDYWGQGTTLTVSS VL: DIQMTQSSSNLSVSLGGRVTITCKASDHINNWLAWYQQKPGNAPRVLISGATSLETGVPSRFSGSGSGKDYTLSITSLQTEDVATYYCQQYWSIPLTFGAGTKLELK	%	102
hCD103.07A (antibody, mouse IgG1, V domains shown, also called clone 07A) VH: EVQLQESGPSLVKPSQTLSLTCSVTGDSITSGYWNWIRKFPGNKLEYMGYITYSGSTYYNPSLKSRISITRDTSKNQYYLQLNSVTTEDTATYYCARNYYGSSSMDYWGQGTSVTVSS VL: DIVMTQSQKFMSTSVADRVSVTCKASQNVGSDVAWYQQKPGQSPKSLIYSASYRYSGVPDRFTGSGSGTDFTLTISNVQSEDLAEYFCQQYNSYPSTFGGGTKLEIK	%	11.4

Kindly indicate its recorded % binding of the fluorescently labeled mAb (IgG pre-incubation = 100). Item: hCD103.05A (antibody, mouse IgG1, V domains shown, Also tested labelled with AF647, conjugated with Df and labelled with 89Zr; these are written under this molecule; also called clone 05A; hCD103.05 mAb) VH: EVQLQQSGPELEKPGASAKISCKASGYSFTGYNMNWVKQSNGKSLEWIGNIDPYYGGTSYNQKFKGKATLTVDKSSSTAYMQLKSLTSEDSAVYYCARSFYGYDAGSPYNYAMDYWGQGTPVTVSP VL: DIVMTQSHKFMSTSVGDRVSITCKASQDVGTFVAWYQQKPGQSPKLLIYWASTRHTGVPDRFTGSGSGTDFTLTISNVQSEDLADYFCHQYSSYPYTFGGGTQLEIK
14.2
